B1: Pituitary-specific positive transcription factor 1, residues 130 to 198; numbered along this chain, P28069 (parent)
chain: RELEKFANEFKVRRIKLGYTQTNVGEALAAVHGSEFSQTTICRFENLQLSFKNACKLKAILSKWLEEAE

Variants of: B1
measurement notes: abundance fitness (aPCA) (normalised: wild type 0, dead -1); higher = more abundant; growth selection in yeast, the domain comes from the species named
test parameters: Homo sapiens
Dear colleague, classification is by abundance fitness, with ranges listed here: small value: < -0.6; mid value: ≥ -0.6 and < -0.1; large value: ≥ -0.1

Some solved cases for reference:
mutation: C42G
answer label: large value
//
mutation: L57Y
answer label: mid value
//
mutation: C42F
answer label: mid value
//
mutation: W64S
answer label: small value
//
mutation: V12F
answer label: mid value
//
mutation: F6T
answer label: small value
//
mutation: K16S
answer label: mid value
//
mutation: E35D
answer label: mid value
//
mutation: E9D
answer label: large value
//
mutation: L65A
answer label: small value

Now for a further variant.
Request: Dear colleague, I would appreciate it if you could identify the bin for `L61K` and reply at your convenience.
Response: mid value
